Measured melting point by item
reported property: melting point

INSERT INTO results (compound, reported_property, measured_value) VALUES
  ('COc1cc2c(cc1OC)C1N(CC2)C(C(=O)C=Cc2cn(-c3ccccc3)nc2-c2ccccc2)=NN1c1ccc(Cl)cc1 (stereo not drawn)', 'melting point', '216 to 218 °C'),
  ('COc1ccc(N2N=C(C(=O)C=Cc3cn(-c4ccccc4)nc3-c3ccccc3)N3CCc4cc(OC)c(OC)cc4C32)cc1 (stereo not drawn)', 'melting point', '186 to 188 °C'),
  ('COc1cc2c(cc1OC)C1N(CC2)C(C(=O)C=Cc2cn(-c3ccccc3)nc2-c2ccccc2)=NN1c1ccc(Br)cc1 (stereo not drawn)', 'melting point', '220 to 222 °C');

* * *

test system: WI-38; experiment: MTT assay on normal lung cell line; settings: Homo sapiens, WI-38, 24 h, read-out: IC50 WI-38
pIC50: −log10 of the molar value.
Measured pIC50 accompanies every entry in the list below.
reported property: pIC50

INSERT INTO results (compound, test_target, measured_value) VALUES
  ('C#Cc1cccc(Nc2ncnc3cc(OCCOC)c(OCCOC)cc23)c1 [Erlotinib, reference compound]', 'WI-38', 2.84),
  ('COc1cc2c(cc1OC)C1N(CC2)C(C(=O)C=Cc2cn(-c3ccccc3)nc2-c2ccccc2)=NN1c1ccc(Br)cc1 (stereo not drawn)', 'WI-38', 2.76),
  ('COc1cc2c(cc1OC)C1N(CC2)C(C(=O)C=Cc2cn(-c3ccccc3)nc2-c2ccccc2)=NN1c1ccc([N+](=O)[O-])cc1 (stereo not drawn)', 'WI-38', 2.80),
  ('COc1ccc(N2N=C(C(=O)C=Cc3cn(-c4ccccc4)nc3-c3ccccc3)N3CCc4cc(OC)c(OC)cc4C32)cc1 (stereo not drawn)', 'WI-38', 3.35),
  ('CS(=O)(=O)CCNCc1ccc(-c2ccc3ncnc(Nc4ccc(OCc5cccc(F)c5)c(Cl)c4)c3c2)o1 [Lapatinib, reference compound]', 'WI-38', 2.91),
  ('COc1cc2c(cc1OC)C1N(CC2)C(C(=O)C=Cc2cn(-c3ccccc3)nc2-c2ccccc2)=NN1c1ccccc1 (stereo not drawn)', 'WI-38', 3.05);
